Listed below: apparent KD of MS2 coat protein values for each entry.
System: MS2 coat protein
Assay: apparent KD of MS2 coat protein; designed switch direction (-1 OFF switch, 1 ON switch): -1; higher = weaker reporter binding
Details: input ligand: FMN 200 uM
Kindly format the answer as number then unit.

Worked examples, 4 sequences total:
Output apparent KD of MS2 coat protein of AACAGUACAGGAUAUACAUGAGGAUCACCCAUGUGACAAUUAAGUGGCGUACCACAAAGUAGAAGGGUACUGGA [Ruby 86] (Eterna round: R96, puzzle: Exclusion 3) 206 nM

Note down apparent KD of MS2 coat protein recorded for GAUCAACAUGAGGAUCACCCAUGUGAGGAUAUAGACCUAAGGCGCAAGCUAUGGGACUCUAGAAGGCGCGGAAU [Eternabot (L2) Solution 93] (Eterna round: R97, puzzle: Exclusion 1) 40 nM

Determine from records and report apparent KD of MS2 coat protein for GGUCGACAUGAGGAUCACCCAUGUCAGGAUAUCGUCACUGGAGCUUCGGCUCCAGUGACGAGAAGGGAUAUAAU [E1/15-A1] (Eterna round: R97, puzzle: Exclusion 1) 24.6 nM

Look up apparent KD of MS2 coat protein of UCUAGGAGAGGAUAUACAUGAGGAUCACCCAUGUGCAUGAUCAGGCGUCAGUCGCACCGUAGAAGGUUCCAGAA [Eternabot (L2) Solution 40] (Eterna round: R97, puzzle: Exclusion 3) and report it. 89.9 nM

New cases:
Provide apparent KD of MS2 coat protein value for the following sequence: CUGGAGUCAGGAUAUAGGGCGGCUAUAACGCUCGCGCCGACCUAGAAGGGACUUGAGGAUCACCCAAGUAAAAU [Teerlaxe] (Eterna round: R97, puzzle: Exclusion 4) 167 nM
